Reference source: ChEMBL document CHEMBL1961873

# tgt: Tyrosine-protein kinase Fgr (Homo sapiens) (UniProt P09769)
# Sequence (P09769 2-529 limits assumed): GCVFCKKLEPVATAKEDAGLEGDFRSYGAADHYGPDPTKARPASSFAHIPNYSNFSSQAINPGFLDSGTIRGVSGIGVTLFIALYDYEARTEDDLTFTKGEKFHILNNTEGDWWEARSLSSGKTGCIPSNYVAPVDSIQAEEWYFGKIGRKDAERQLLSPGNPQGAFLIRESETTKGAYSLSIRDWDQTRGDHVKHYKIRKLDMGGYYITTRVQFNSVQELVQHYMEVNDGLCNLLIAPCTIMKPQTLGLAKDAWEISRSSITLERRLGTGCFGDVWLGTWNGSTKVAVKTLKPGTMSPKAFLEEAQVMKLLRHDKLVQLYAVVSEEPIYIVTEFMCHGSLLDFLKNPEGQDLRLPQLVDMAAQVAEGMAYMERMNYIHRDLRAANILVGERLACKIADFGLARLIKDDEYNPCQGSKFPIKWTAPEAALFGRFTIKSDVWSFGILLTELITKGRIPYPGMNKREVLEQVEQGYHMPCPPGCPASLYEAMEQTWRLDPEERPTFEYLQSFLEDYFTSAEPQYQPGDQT
# assay.setup: at 0.1 µM
experimental.readout: inhibition

In: Any idea what its inhibition is? The compound is `CCn1c(-c2nonc2N)nc2cnc(Oc3cccc(NC(=O)c4ccc(N(C)C)cc4)c3)cc21`
Out: 0.55%

In: What does the record list as inhibition for `CCCN1CCC(c2ccc(Nc3nc(Nc4cc(F)ccc4C(N)=O)c4cc[nH]c4n3)c(OC)c2)CC1` ?
Out: 6.28%

In: Form field: reported inhibition of `COc1ccc(-c2cc3c(N)ncnc3o2)cc1`
Out: 1.49%

In: Name the recorded inhibition for `COc1cccc(-n2ncc3c(N/N=C/c4ccc(F)cc4)ncnc32)c1` .
Out: 11.4%

In: // inhibition lookup, key: `CC(C)(CO)CNC(=O)c1ccc2c(c1)/C(=N/Nc1ccc(S(N)(=O)=O)cc1)C(=O)N2`
Out: 3.82%

In: Need inhibition, item `CCNC(=O)O[C@H]1CN[C@H](C#Cc2cc3ncnc(Nc4ccc(OCc5cccc(F)c5)c(Cl)c4)c3s2)C1`
Out: 1.28%

In: Would you mind telling me what inhibition value was observed for `O=C(Nc1n[nH]c2cc(-c3ccc(F)cc3)ccc12)C1CC1` ?
Out: 1.35%

In: Item `CN(C)CCOc1ccc(-c2nc(-c3ccncc3)c(-c3ccc4c(c3)CC/C4=N\O)[nH]2)cc1` has what recorded inhibition?
Out: 2.2%

In: Quick one: inhibition for `Fc1ccc(-c2nn3ccccc3c2-c2ccncc2)cc1` ?
Out: -0.1%

In: Would you kindly share the measured inhibition for `CS(=O)(=O)CCNCc1ccc(-c2ccc3ncnc(Nc4ccc(OCc5ccccc5)c(C(F)(F)F)c4)c3c2)o1` ?
Out: 1.98%

In: Return reported inhibition; argument: `Cc1cccc2c1NC(=O)/C2=N\Nc1ccc(S(N)(=O)=O)cc1`
Out: 0.52%

In: State the recorded inhibition for this entry: `COc1ccc2c(-c3ccnc(Nc4cccc(OC(F)(F)F)c4)n3)cnn2n1`
Out: 5.29%

In: May I ask what inhibition has been recorded for `COc1ccc2[nH]c3c4[nH]c5ccc(OC)cc5c4c4c(c3c2c1)C(=O)NC4=O` ?
Out: 10.8%

In: Quick check: inhibition of `CCn1c(-c2nonc2N)nc2ccccc21` ?
Out: 2.86%

In: Can you share its inhibition? I mean this compound: `c1ccc(COc2ccc(Nc3ncnc4ccc(-c5ccco5)cc34)cc2)cc1`
Out: 3.1%

In: What value of inhibition has been reported for the following compound? `Nc1nc(-c2ccc(F)cc2)c(-c2ccc3ncccc3n2)s1`
Out: 6.43%

In: Can you share its inhibition? I mean this compound: `Clc1ccc(-c2nn3ncccc3c2-c2ccnc(Nc3ccccc3)n2)cc1`
Out: 25.1%

In: Recorded inhibition for `Nc1ncc(-c2cccc(S(N)(=O)=O)c2)c2scc(-c3ccc(F)c(Cl)c3)c12` , please?
Out: 10.9%

In: Fill in the blank: the reported inhibition of `COc1ccc(-c2cc(-c3c[nH]nc3-c3ccccn3)ccn2)cc1` is ____.
Out: 5.33%

In: Need inhibition of `COc1ccc(-c2oc3ncnc(N)c3c2-c2ccc(NC(=O)Nc3cc(C(F)(F)F)ccc3F)cc2)cc1` , thanks.
Out: 17%

###

Consider the following compounds; for each one, report its inhibition.
# tgt: Serine/threonine-protein kinase DCLK2 (Homo sapiens) (UniProt Q8N568)
# Sequence (Q8N568 whole entry): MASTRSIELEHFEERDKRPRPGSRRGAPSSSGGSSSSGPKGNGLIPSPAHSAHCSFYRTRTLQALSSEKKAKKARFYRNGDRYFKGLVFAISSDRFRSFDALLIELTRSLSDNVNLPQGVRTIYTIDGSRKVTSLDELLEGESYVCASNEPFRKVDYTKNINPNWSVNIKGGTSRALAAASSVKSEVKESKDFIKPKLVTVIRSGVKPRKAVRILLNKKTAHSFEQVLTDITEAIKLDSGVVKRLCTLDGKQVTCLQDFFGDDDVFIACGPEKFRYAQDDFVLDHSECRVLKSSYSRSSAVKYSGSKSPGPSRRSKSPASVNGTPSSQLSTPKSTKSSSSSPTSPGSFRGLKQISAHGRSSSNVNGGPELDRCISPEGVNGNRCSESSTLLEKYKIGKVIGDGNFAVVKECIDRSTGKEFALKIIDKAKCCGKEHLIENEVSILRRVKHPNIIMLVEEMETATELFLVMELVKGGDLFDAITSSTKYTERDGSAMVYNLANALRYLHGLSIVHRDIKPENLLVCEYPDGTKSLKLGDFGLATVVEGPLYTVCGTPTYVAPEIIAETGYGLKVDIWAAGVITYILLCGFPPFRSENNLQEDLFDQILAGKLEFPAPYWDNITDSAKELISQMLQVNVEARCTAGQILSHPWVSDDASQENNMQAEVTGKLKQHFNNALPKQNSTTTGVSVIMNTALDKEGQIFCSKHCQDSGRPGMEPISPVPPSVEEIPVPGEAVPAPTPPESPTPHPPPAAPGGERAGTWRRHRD
# assay.setup: at 0.1 µM

In: Record lookup: for Serine/threonine-protein kinase DCLK2 (Homo sapiens) (UniProt Q8N568), what inhibition belongs to `c1ccc(COc2ccc(Nc3ncnc4ccc(-c5ccco5)cc34)cc2)cc1` ?
Out: -0.98%

In: Query inhibition on Serine/threonine-protein kinase DCLK2 (Homo sapiens) (UniProt Q8N568) for `CC(=O)Nc1cccc(C#Cc2cncnc2Nc2ccc(OCc3cccc(F)c3)c(Cl)c2)c1`
Out: 2.03%

In: Report inhibition for `CCn1c(-c2nonc2N)nc2cnc(Oc3cccc(NC(=O)c4ccc(N(C)C)cc4)c3)cc21` tested on Serine/threonine-protein kinase DCLK2 (Homo sapiens) (UniProt Q8N568).
Out: 0.41%

In: Report inhibition for `COc1cc2c(cc1Nc1nc(Nc3ccsc3C(N)=O)c3cc[nH]c3n1)N(C(=O)CN(C)C)CCC2(C)C` tested on Serine/threonine-protein kinase DCLK2 (Homo sapiens) (UniProt Q8N568).
Out: 1.46%

In: Give inhibition (Serine/threonine-protein kinase DCLK2 (Homo sapiens) (UniProt Q8N568)) of the following compound: `CS(=O)(=O)CCNCc1coc(-c2ccc3ncnc(Nc4ccc(OCc5ccccc5)cc4)c3c2)c1`
Out: -0.36%

In: Short answer please: inhibition, Serine/threonine-protein kinase DCLK2 (Homo sapiens) (UniProt Q8N568), entry `FC(F)(F)c1cccc(-c2nn3ncccc3c2-c2ccnc(Nc3ccc4c(c3)OCCO4)n2)c1`
Out: 0.29%

In: Kindly state the measured inhibition obtained for `Clc1ccc(-c2nn3ncccc3c2-c2ccnc(Nc3ccccc3)n2)cc1` with Serine/threonine-protein kinase DCLK2 (Homo sapiens) (UniProt Q8N568).
Out: 1.9%

In: Give the reported inhibition for `CS(=O)(=O)CCNCc1ccc(-c2ccc3ncnc(Nc4ccc(OCc5ccccc5)c(C(F)(F)F)c4)c3c2)o1` (system: Serine/threonine-protein kinase DCLK2 (Homo sapiens) (UniProt Q8N568)).
Out: 7.37%

In: Value wanted: inhibition (Serine/threonine-protein kinase DCLK2 (Homo sapiens) (UniProt Q8N568)) of entry `Cc1cccc(Nc2ncc(-c3ccccc3)o2)c1`
Out: -0.51%

In: What inhibition appears in the records for this compound with Serine/threonine-protein kinase DCLK2 (Homo sapiens) (UniProt Q8N568)? `CNC(=O)c1cccc(C#Cc2cncnc2Nc2ccc(OCc3cccc(F)c3)c(Cl)c2)c1`
Out: -9.58%

In: Report inhibition for `COc1ccc2[nH]c3c4[nH]c5ccc(OC)cc5c4c4c(c3c2c1)C(=O)NC4=O` tested on Serine/threonine-protein kinase DCLK2 (Homo sapiens) (UniProt Q8N568).
Out: 1.24%

In: Any idea what inhibition came out for `COc1cc(Nc2nccc(Nc3ccc4c(C)n[nH]c4c3)n2)cc(OC)c1OC` on Serine/threonine-protein kinase DCLK2 (Homo sapiens) (UniProt Q8N568)?
Out: -0.29%

In: Under Serine/threonine-protein kinase DCLK2 (Homo sapiens) (UniProt Q8N568): inhibition value of `CCn1cc(-c2ccnc3[nH]ccc23)c(-c2cccc(NC(=O)Nc3ccc(OCc4ccccc4)cc3)c2)n1` ?
Out: -1.87%

In: Under Serine/threonine-protein kinase DCLK2 (Homo sapiens) (UniProt Q8N568): inhibition value of `CN1CCC(n2cnc(-c3ccc(F)cc3)c2-c2ccnc(N)n2)CC1` ?
Out: 0.59%

In: Any idea what inhibition came out for `CN(C)CCOc1ccc(-c2nc(-c3ccncc3)c(-c3ccc4c(c3)CC/C4=N\O)[nH]2)cc1` on Serine/threonine-protein kinase DCLK2 (Homo sapiens) (UniProt Q8N568)?
Out: 0.7%

In: Give Serine/threonine-protein kinase DCLK2 (Homo sapiens) (UniProt Q8N568) inhibition for `COc1cccc(-n2ncc3c(N/N=C/c4ccc(F)cc4)ncnc32)c1`
Out: 1.07%

In: Form field - read-out: inhibition; system: Serine/threonine-protein kinase DCLK2 (Homo sapiens) (UniProt Q8N568); submitted item: `c1cc(-c2cnn3nc(N4CCOCC4)ccc23)nc(NC2CC2)n1`
Out: -0.25%

In: Notebook entry, Serine/threonine-protein kinase DCLK2 (Homo sapiens) (UniProt Q8N568) assay: inhibition of `[O-][S+]1CCN(Cc2ccc(-c3ccc4ncnc(Nc5ccc(OCc6cccc(F)c6)c(Cl)c5)c4c3)o2)CC1` = ?
Out: 0.51%

In: Enter reported inhibition observed with Serine/threonine-protein kinase DCLK2 (Homo sapiens) (UniProt Q8N568) for `COc1ccc(-c2nn3ncccc3c2-c2ccnc(Nc3ccc4c(c3)OCCO4)n2)cc1`
Out: -1.54%

In: For Serine/threonine-protein kinase DCLK2 (Homo sapiens) (UniProt Q8N568), provide inhibition of `NS(=O)(=O)c1ccc(Nc2ncc(-c3ccccc3)o2)cc1` please.
Out: 1.31%

In: Given the entry `N#Cc1c(NC(=O)c2ccc(F)cc2)sc2c1CCCC2` , what inhibition was observed with Serine/threonine-protein kinase DCLK2 (Homo sapiens) (UniProt Q8N568)?
Out: 0%

In: Can you look up inhibition on Serine/threonine-protein kinase DCLK2 (Homo sapiens) (UniProt Q8N568) for `COc1ccc(CNC(=O)c2ccc(-c3cc(-c4nnc(C)o4)ccc3C)cc2)cc1` ?
Out: 1.92%

In: Request: inhibition, test system Serine/threonine-protein kinase DCLK2 (Homo sapiens) (UniProt Q8N568), entry `COc1ccc(-c2oc3ncnc(N)c3c2-c2ccc(NC(=O)Nc3cc(C(F)(F)F)ccc3F)cc2)cc1`
Out: 1.65%

In: For Serine/threonine-protein kinase DCLK2 (Homo sapiens) (UniProt Q8N568), provide inhibition of `CCn1c(-c2nonc2N)nc2c(C#CC(C)(C)O)nc(OC[C@H](N)c3ccccc3)cc21` please.
Out: -2.25%

In: Can you look up inhibition on Serine/threonine-protein kinase DCLK2 (Homo sapiens) (UniProt Q8N568) for `COc1cc(/C=N/Nc2ncnc3[nH]ncc23)ccc1O` ?
Out: 1.49%

In: Recall the recorded inhibition for `CC(C)(CO)CNC(=O)c1ccc2c(c1)/C(=N/Nc1ccc(S(N)(=O)=O)cc1)C(=O)N2` with Serine/threonine-protein kinase DCLK2 (Homo sapiens) (UniProt Q8N568) and state it.
Out: 0.04%

In: What reported inhibition corresponds to `Fc1cccc(COc2ccc(Nc3ncnc4sc(-c5ccco5)cc34)cc2Cl)c1` on Serine/threonine-protein kinase DCLK2 (Homo sapiens) (UniProt Q8N568)?
Out: -1.11%

In: For the record CC1=C(C(=O)Nc2cc(Cl)c3[nH]ncc3c2)C(c2ccc(C(F)(F)F)cc2)CC(=O)N1 (stereo not drawn) , what value of inhibition is listed for Serine/threonine-protein kinase DCLK2 (Homo sapiens) (UniProt Q8N568)?
Out: 3.55%

In: What is its inhibition for Serine/threonine-protein kinase DCLK2 (Homo sapiens) (UniProt Q8N568)? Entry: `Nc1nc(-c2cccc(Cl)c2)c(-c2ccc3ncccc3n2)s1`
Out: 1.69%

In: Param readout = inhibition; param system = Serine/threonine-protein kinase DCLK2 (Homo sapiens) (UniProt Q8N568); param query = `CCCN(CCS(C)(=O)=O)Cc1ccc(-c2ccc3ncnc(Nc4ccc(OCc5cccc(F)c5)c(Cl)c4)c3c2)o1` ; response: value
Out: 0.95%

In: What is its inhibition for Serine/threonine-protein kinase DCLK2 (Homo sapiens) (UniProt Q8N568)? Entry: `CCn1c(-c2nonc2N)nc2ccccc21`
Out: -0.38%

In: Please tell me: inhibition of `CCCN1CCC(c2ccc(Nc3nc(Nc4cc(F)ccc4C(N)=O)c4cc[nH]c4n3)c(OC)c2)CC1` , system Serine/threonine-protein kinase DCLK2 (Homo sapiens) (UniProt Q8N568)?
Out: 1.99%

In: Value wanted: inhibition (Serine/threonine-protein kinase DCLK2 (Homo sapiens) (UniProt Q8N568)) of entry `O=C(O[C@H]1CN[C@H](C#Cc2cc3ncnc(Nc4ccc(Cc5ccccc5)cc4)c3s2)C1)N1CCOCC1`
Out: -0.4%

In: So what inhibition did `O=C(Nc1n[nH]c2cc(-c3ccc(F)cc3)ccc12)C1CC1` get with Serine/threonine-protein kinase DCLK2 (Homo sapiens) (UniProt Q8N568)?
Out: 1.56%

In: Hello, I am looking for reported inhibition with Serine/threonine-protein kinase DCLK2 (Homo sapiens) (UniProt Q8N568) for `Fc1ccc(-c2cc(-c3c[nH]nc3-c3ccccn3)ccn2)cc1` . Could you help?
Out: 1.09%

In: Checklist item: inhibition tested on Serine/threonine-protein kinase DCLK2 (Homo sapiens) (UniProt Q8N568), entry `COc1ccc2c(-c3ccnc(Nc4cccc(OC(F)(F)F)c4)n3)cnn2n1` , value?
Out: 0.72%

In: So what inhibition did `NC(=O)c1sc(-n2cnc3ccc(C(F)(F)F)cc32)cc1OCc1ccccc1Br` get with Serine/threonine-protein kinase DCLK2 (Homo sapiens) (UniProt Q8N568)?
Out: 0.84%

In: Please state recorded inhibition (tested on Serine/threonine-protein kinase DCLK2 (Homo sapiens) (UniProt Q8N568)) of `Nc1nc(-c2ccc(F)cc2)c(-c2ccc3ncccc3n2)s1`;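 also: reported value is the mean percent inhibition of DCAMKL2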
Out: 1.89%
